Assay Comment: Binding affinity towards Opioid receptor delta 1 from guinea pig brain using [3H]naltrindole as radioligand
pKi: −log10 of the molar value.
Reported pKi values are given for each entry in this list.
Measured Parameter: pKi

- Smiles Representation: "CC[C@@]12CCN(CC3CC3)C(C(=O)c3ccc(N)cc31)[C@@H]2C"
  Measured Parameter: "pKi"
  Numeric Value: 7.09
- Smiles Representation: "C[C@H]1C2Cc3ccc(Nc4ccncc4)cc3[C@@]1(C)CCN2CC1CC1"
  Measured Parameter: "pKi"
  Numeric Value: 6.62
- Smiles Representation: "COc1ccccc1Nc1ccc2c(c1)[C@@]1(C)CCN(CC3CC3)C(C2)[C@@H]1C"
  Measured Parameter: "pKi"
  Numeric Value: 7.01
- Smiles Representation: "C[C@H]1C2Cc3ccc(Nc4cccnc4)cc3[C@@]1(C)CCN2CC1CC1"
  Measured Parameter: "pKi"
  Numeric Value: 7.68
- Smiles Representation: "C[C@H]1C2Cc3ccc(Nc4ccccn4)cc3[C@@]1(C)CCN2CC1CC1"
  Measured Parameter: "pKi"
  Numeric Value: 7.96

----------
Assay Comment: Binding affinity towards Opioid receptor delta 1 from guinea pig brain using [3H]naltrindole as radioligand
Measured Parameter: Ki (nM)

- Smiles Representation: "COc1ccc(Nc2ccc3c(c2)[C@@]2(C)CCN(CC4CC4)C(C3)[C@@H]2C)cc1"
  Unit Info: "nM"
  Numeric Value: 8.3
- Smiles Representation: "C[C@H]1C2Cc3ccc(Nc4ccc(Cl)cc4)cc3[C@@]1(C)CCN2CC1CC1"
  Unit Info: "nM"
  Numeric Value: 26
- Smiles Representation: "C[C@@H]1[C@@H]2Cc3ccc(N)cc3[C@]1(C)CCN2CC1CC1"
  Unit Info: "nM"
  Numeric Value: 920
- Smiles Representation: "C[C@H]1C2Cc3cc4c(cc3[C@@]1(C)CCN2CC1CC1)[nH]c1ccccc14"
  Unit Info: "nM"
  Numeric Value: 170
- Smiles Representation: "COc1cccc(Nc2ccc3c(c2)[C@@]2(C)CCN(CC4CC4)C(C3)[C@@H]2C)c1"
  Unit Info: "nM"
  Numeric Value: 13
- Smiles Representation: "C[C@H]1[C@H]2Cc3ccc(N)cc3[C@@]1(C)CCN2C[C@@H]1CCCO1"
  Unit Info: "nM"
  Numeric Value: 370
- Smiles Representation: "C[C@H]1C2Cc3ccc(Nc4ccc(Cl)c(Cl)c4)cc3[C@@]1(C)CCN2CC1CC1"
  Unit Info: "nM"
  Numeric Value: 29
- Smiles Representation: "C[C@H]1[C@H]2Cc3ccc(O)cc3[C@@]1(C)CCN2C[C@@H]1CCCO1"
  Unit Info: "nM"
  Numeric Value: 2.5
- Smiles Representation: "C[C@H]1[C@H]2Cc3ccc(Nc4ccccc4)cc3[C@@]1(C)CCN2C[C@@H]1CCCO1"
  Unit Info: "nM"
  Numeric Value: 35
- Smiles Representation: "C[C@H]1C2C(=O)c3ccc(O)cc3[C@@]1(C)CCN2CC1CC1"
  Unit Info: "nM"
  Numeric Value: 20

Taken from BindingDB's records for doi:10.1021/jm020429w.
